System: NCI-H23 complex spheroids with HUVEC/MSC, viability
Test: Anticancer human tumor NCI-H23 cell line growth inhibition [RAS];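 further: spheroids exposed to compound for 7 days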
Conditions: second compound 0.003 µM; first compound 0.00316 µM; hits give low values
Criterion: viability, T/C strictly less than 30%. Met: Satisfied. Not met: Not satisfied.

[in] Is the reported viability, T/C for O=C(c1ccc(F)c(F)c1Nc1ccc(I)cc1F)N1CC(O)([C@@H]2CCCCN2)C1 + CCn1c(-c2cc(N3CCN(C)CC3)cnc2C(C)OC)c2c3cc(ccc31)-c1csc(n1)CC(NC(=O)C1CC1C)C(=O)N1CCCC(N1)C(=O)OCC(C)(C)C2 strictly below 30%?
[out] Not satisfied

[in] Another compound to look at: O=C(c1ccc(F)c(F)c1Nc1ccc(I)cc1F)N1CC(O)([C@@H]2CCCCN2)C1 + CCn1c(-c2cccnc2C(C)OC)c2c3cc(ccc31)N1CCOC(CC(NC(=O)C(C(C)C)N(C)C(=O)C3(F)CCN(C(=O)C#CC(C)(C)N(C)C)CC3)C(=O)N3CCCC(N3)C(=O)OCC(C)(C)C2)C1
[out] Not satisfied

[in] Another compound to look at: CCN1CCN(Cc2ccc(Nc3ncc(F)c(-c4cc(F)c5nc(C)n(C(C)C)c5c4)n3)nc2)CC1 + CCn1c(-c2cccnc2C(C)OC)c2c3cc(ccc31)N1CCOC(CC(NC(=O)C(C(C)C)N(C)C(=O)C3(F)CCN(C(=O)C#CC(C)(C)N(C)C)CC3)C(=O)N3CCCC(N3)C(=O)OCC(C)(C)C2)C1
[out] Satisfied

[in] Another compound to look at: CC(C)n1nc(-c2ccc3oc(N)nc3c2)c2c(N)ncnc21 + CCn1c(-c2cccnc2C(C)OC)c2c3cc(ccc31)N1CCOC(CC(NC(=O)C(C(C)C)N(C)C(=O)C3(F)CCN(C(=O)C#CC(C)(C)N(C)C)CC3)C(=O)N3CCCC(N3)C(=O)OCC(C)(C)C2)C1
[out] Satisfied

[in] Another compound to look at: Nc1ccn(C2OC(CO)C(O)C2(F)F)c(=O)n1 (configuration not stated) + CCn1c(-c2cc(N3CCN(C)CC3)cnc2C(C)OC)c2c3cc(ccc31)-c1csc(n1)CC(NC(=O)C1CC1C)C(=O)N1CCCC(N1)C(=O)OCC(C)(C)C2
[out] Satisfied

[in] Another compound to look at: Nc1ccn(C2OC(CO)C(O)C2(F)F)c(=O)n1 (configuration not stated) + CCn1c(-c2cccnc2C(C)OC)c2c3cc(ccc31)N1CCOC(CC(NC(=O)C(C(C)C)N(C)C(=O)C3(F)CCN(C(=O)C#CC(C)(C)N(C)C)CC3)C(=O)N3CCCC(N3)C(=O)OCC(C)(C)C2)C1
[out] Satisfied

[in] Another compound to look at: CC(C)n1nc(-c2ccc3oc(N)nc3c2)c2c(N)ncnc21 + CCn1c(-c2cc(N3CCN(C)CC3)cnc2C(C)OC)c2c3cc(ccc31)-c1csc(n1)CC(NC(=O)C1CC1C)C(=O)N1CCCC(N1)C(=O)OCC(C)(C)C2
[out] Satisfied

[in] Another compound to look at: C=CC(=O)N1CCN(c2nc(OCC3CCCN3C)nc3c(F)c(-c4nc(N)cc(C)c4C(F)(F)F)c(Cl)cc23)C(C)C1 (configuration not stated) + CCn1c(-c2cccnc2C(C)OC)c2c3cc(ccc31)N1CCOC(CC(NC(=O)C(C(C)C)N(C)C(=O)C3(F)CCN(C(=O)C#CC(C)(C)N(C)C)CC3)C(=O)N3CCCC(N3)C(=O)OCC(C)(C)C2)C1
[out] Not satisfied

[in] Another compound to look at: C=CC(=O)Nc1cc(Nc2nccc(-c3cn(C)c4ccccc34)n2)c(OC)cc1N(C)CCN(C)C + CCn1c(-c2cccnc2C(C)OC)c2c3cc(ccc31)N1CCOC(CC(NC(=O)C(C(C)C)N(C)C(=O)C3(F)CCN(C(=O)C#CC(C)(C)N(C)C)CC3)C(=O)N3CCCC(N3)C(=O)OCC(C)(C)C2)C1
[out] Not satisfied

[in] Another compound to look at: C=CC(=O)N1CCN(c2nc(OCC3CCCN3C)nc3c(F)c(-c4nc(N)cc(C)c4C(F)(F)F)c(Cl)cc23)C(C)C1 (configuration not stated) + CCn1c(-c2cc(N3CCN(C)CC3)cnc2C(C)OC)c2c3cc(ccc31)-c1csc(n1)CC(NC(=O)C1CC1C)C(=O)N1CCCC(N1)C(=O)OCC(C)(C)C2
[out] Not satisfied

[in] Another compound to look at: C=CC(=O)Nc1cc(Nc2nccc(-c3cn(C)c4ccccc34)n2)c(OC)cc1N(C)CCN(C)C + CCn1c(-c2cc(N3CCN(C)CC3)cnc2C(C)OC)c2c3cc(ccc31)-c1csc(n1)CC(NC(=O)C1CC1C)C(=O)N1CCCC(N1)C(=O)OCC(C)(C)C2
[out] Not satisfied
